# Organism: Homo sapiens
# EXPERIMENTAL PROTOCOL: Evaluated for its specificity by inhibition of TXB2 and PGH-2 (substrate) biosynthesis, enzyme source is human platelets.
# Assay type: functional
pIC50: −log10 of the molar value.
QUANTITY: pIC50

Exercise: Look up pIC50: CCCCCCCC(=O)NCC(=O)NCC1C2CCC(O2)C1C/C=C/CCCC(=O)O (single isomer, unassigned; (-))
Solution: < 3.00

---

# Test system: Cavia porcellus
# EXPERIMENTAL PROTOCOL: Evaluated for the percent inhibition of arachidonate-induced dynamic compliance at 60 min after dosing (0.1 mg/kg iv) in anesthetized guinea pig.
# Assay type: functional
QUANTITY: Inhibition (%)
Could you give me the number in %? Just the number is fine.

O=C(O)CCC/C=C/CC1C2CCC(O2)C1CNNC(=O)Nc1ccccc1 (racemic)
56
O=C(O)CCC/C=C/CC1C2CCC(O2)C1CNC(=O)CNC(=O)CSc1ccccc1 (stereo not drawn)
42
CCCCCC/C(S)=N/CC(=O)NCC1C2CCC(O2)C1C/C=C/CCCC(=O)O (stereo not drawn)
56
CC(C)(C)c1ccc(SCC(=O)NCC(=O)NCC2C3CCC(O3)C2C/C=C/CCCC(=O)O)cc1 (stereo not drawn)
26
CCCCCCCCC(=O)NCC(=O)NCC1C2CCC(O2)C1C/C=C/CCCC(=O)O (stereo not drawn)
39
CCCCCCCC(=O)NCC(=O)NCC1C2CCC(O2)C1C/C=C/CCCC(=O)O (stereo in doubt; 51)
74
CCCCCCCC(=O)NCC(=O)NCC1C2CCC(O2)C1C/C=C/CCCC(=O)O (single isomer, unassigned; (-))
22

// next entry
Exercise: Look up Inhibition: O=C(O)CCC/C=C/CC1C2CCC(O2)C1CNC(=O)CNC(=O)CCCC1CCCCC1 (stereo not drawn)
Solution: 59
